target: Epidermal growth factor receptor (Homo sapiens, UniProt P00533, C797S/L858R/T790M); assay: Inhibition of N-terminal His6-tagged human EGFR L858R/T790M/C797S mutant expressed in Sf9 cells assessed as decrease in substrate phosphorylation incubated for 45 mins using Srctide as substrate in presence of 1mM of ATP by microplate reader analysis
Sequence (P00533 25-1210 T790M/C797S/L858R limits assumed): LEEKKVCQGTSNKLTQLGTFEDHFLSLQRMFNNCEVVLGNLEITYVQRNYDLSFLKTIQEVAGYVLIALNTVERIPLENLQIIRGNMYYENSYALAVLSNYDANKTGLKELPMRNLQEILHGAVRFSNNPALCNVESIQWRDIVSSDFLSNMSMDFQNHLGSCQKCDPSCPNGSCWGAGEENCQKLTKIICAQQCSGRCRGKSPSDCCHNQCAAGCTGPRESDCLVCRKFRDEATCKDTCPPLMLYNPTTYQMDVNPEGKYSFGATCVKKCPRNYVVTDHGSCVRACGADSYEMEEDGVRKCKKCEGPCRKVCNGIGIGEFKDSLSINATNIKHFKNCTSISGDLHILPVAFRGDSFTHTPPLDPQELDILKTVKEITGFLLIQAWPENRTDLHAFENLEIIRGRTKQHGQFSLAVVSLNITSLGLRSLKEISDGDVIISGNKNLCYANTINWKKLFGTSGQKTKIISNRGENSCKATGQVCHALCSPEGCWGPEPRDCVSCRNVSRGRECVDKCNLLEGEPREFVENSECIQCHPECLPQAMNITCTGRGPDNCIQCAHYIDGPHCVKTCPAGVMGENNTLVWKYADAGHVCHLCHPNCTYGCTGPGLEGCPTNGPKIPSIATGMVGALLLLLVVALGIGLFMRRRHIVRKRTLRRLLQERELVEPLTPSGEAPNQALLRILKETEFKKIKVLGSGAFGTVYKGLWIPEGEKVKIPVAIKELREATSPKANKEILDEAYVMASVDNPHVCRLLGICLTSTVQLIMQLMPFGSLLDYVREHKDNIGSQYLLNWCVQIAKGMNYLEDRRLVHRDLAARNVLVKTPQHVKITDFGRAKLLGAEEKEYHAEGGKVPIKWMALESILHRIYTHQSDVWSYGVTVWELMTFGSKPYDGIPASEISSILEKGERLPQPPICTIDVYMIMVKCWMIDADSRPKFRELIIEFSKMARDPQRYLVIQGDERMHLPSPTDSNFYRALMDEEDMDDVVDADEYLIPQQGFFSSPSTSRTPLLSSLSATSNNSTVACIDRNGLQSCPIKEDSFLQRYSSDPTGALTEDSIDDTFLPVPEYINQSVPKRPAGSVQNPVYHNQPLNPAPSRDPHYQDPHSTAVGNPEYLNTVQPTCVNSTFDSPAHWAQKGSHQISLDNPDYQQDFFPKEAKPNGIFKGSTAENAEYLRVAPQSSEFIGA
pIC50: −log10 of the molar value.

[
  {
    "compound": "C=CC(=O)Nc1cc(-c2cn(C)c3ccccc23)ncn1",
    "pIC50": 5.89
  }
]

====

target: Epidermal growth factor receptor (Homo sapiens, UniProt P00533, C797S/L858R/T790M); assay: Inhibition of N-terminal His6-tagged human EGFR L858R/T790M/C797S mutant expressed in Sf9 cells assessed as decrease in substrate phosphorylation using Srctide as substrate preincubated for 60 mins followed by substrate addition in presence of 5uM of ATP and measured after 45 mins by microplate reader analysis
pIC50: −log10 of the molar value.

[
  {
    "compound": "C=CC(=O)Nc1cc(-c2cn(C)c3ccccc23)ncn1",
    "pIC50": 6.78
  }
]

====

molecular target: Epidermal growth factor receptor (Homo sapiens, UniProt P00533, C797S/L858R/T790M); experiment: Inhibition of N-terminal His6-tagged human EGFR L858R/T790M/C797S mutant expressed in Sf9 cells assessed as decrease in substrate phosphorylation using Srctide as substrate preincubated for 20 mins followed by substrate addition in presence of 1mM of ATP and measured after 45 mins by microplate reader analysis
experimentalEndpoint: IC50 (nM)

[
  {
    "compound": "C=CC(=O)Nc1cc(-c2cn(C)c3ccccc23)ncn1",
    "experimentalEndpoint": "IC50",
    "quantityUnit": "nM",
    "measuredValue": 251
  }
]

====

molecular target: Epidermal growth factor receptor (Homo sapiens, UniProt P00533, C797S/L858R/T790M); experiment: Inhibition of N-terminal His6-tagged human EGFR L858R/T790M/C797S mutant expressed in Sf9 cells assessed as decrease in substrate phosphorylation incubated for 45 mins using Srctide as substrate in presence of 5uM of ATP by microplate reader analysis
pIC50: −log10 of the molar value.

[
  {
    "compound": "C=CC(=O)Nc1cc(-c2cn(C)c3ccccc23)ncn1",
    "pIC50": 6.22
  }
]
